- assayTarget: GPCR ADRB2-AVPR2 (Homo sapiens, UniProt P07550, E27Q/G16R)
- assayDetails: two-component (NarX/NarL) reporter assay of GPCR/beta-arrestin interaction, pair ADRB2-AVPR2::H^mut and beta-arrestin::N^mut, in HEK293 cells
- conditionDescription: ADRB2-AVPR2::H^mut and beta-arrestin::N^mut, NarL-regulated mCerulean reporter, HEK293; read-out: EC50 from the dose-response curves
measuredAttribute: pEC50
Remember, pEC50 is on a log scale: it is -log10 of the molar concentration.

# CCC(NC(C)C)C(O)c1ccc(O)c2[nH]c(=O)ccc12 (stereo not shown) [procaterol] with GPCR ADRB2-AVPR2 (Homo sapiens, UniProt P07550, E27Q/G16R): pEC50 is 8.30

// data source = patent US20210340526A1
